measured.parameter: melting point

Examples with answers:
compound | melting point
CCOC(=O)c1ccc2oc3ncccc3c(=O)c2c1 | 131 to 132 °C
Nc1ccc(N2CCN(c3ccccc3OCC3COC(Cn4cncn4)(c4ccc(Cl)cc4Cl)O3)CC2)cc1 (stereo not given) | 187 °C
CC(=O)N[C@H]1CC[C@H](c2ccc(N)cc2)CC1 | 195 to 196 °C
O=C(C=Cc1cccc(Br)c1)c1cnc2sc3c(n12)CCCCC3 | 125 to 126 °C
Cn1c(COc2ccc(CC3SC(=O)NC3=O)cc2)nc2ccc(Oc3ccc(NC(=O)c4ccc(F)cc4F)cc3)cc21 (stereo not given) | 172 to 174 °C

So what does the record say about melting point for Cc1cc(-c2nc3cc(Cl)cc(Cl)c3c(=O)[nH]2)cc(C)c1OCCN1CCCC1 ?
209 to 210 °C

###

Recorded melting point values for a group of compounds are listed next.

Examples with answers:
compound | melting point
CNC(=O)c1ccc(N2CCN(c3ccncc3)CC2)cc1 | 239 to 242 °C
O=C(NO)C(=O)Nc1ccccc1 | 165 to 167 °C
CC(=O)OCC1(c2ccccc2)CCC(=O)CC1 | 74 to 79 °C
COC(=O)c1cc(N)c(Oc2ccccc2)c(N2CCCC2)c1 | 154 to 156 °C

So what does the record say about melting point for O=C(O)CCOc1cccc(CN2CCCCC2)c1 ?
178 to 180 °C

So what does the record say about melting point for Cc1csc(-c2c(C)c(NC(=O)CC(C)(C)C)c(C)c3c2OCC3c2ccc(C(C)C)cc2)n1 (stereo unspecified) ?
240 to 241 °C

###

Recorded melting point values for a group of compounds are listed next.

Examples with answers:
compound | obs.value
COc1cc2ncnc(N3CCC(C(C)CN4CCCS4(=O)=O)CC3)c2cc1OC (stereo unspecified) | 129 to 131 °C
N#CCc1ccc(F)cc1C(=O)O | 140 °C
CCCN(c1cccc(-c2ccnc3c([N+](=O)[O-])cnn23)c1)S(C)(=O)=O | 165 to 167 °C
O=c1c(-c2ccccc2)cc([N+](=O)[O-])c2n1CCc1ccsc1-2 | 180 to 182 °C
Cc1nc[nH]c1CSCCNC(=C[N+](=O)[O-])NCCSCc1nccs1 | 119 to 120 °C

Moving on to the next compound.
So what does the record say about melting point for Cc1cc(NC(=O)C(C)(C)Sc2ccc(Cl)cc2)c(C)c(C)c1O ?
134 °C

###

measured.parameter: melting point

molecule | melting point
CC(O)c1ccc(OCCCN2CCC(c3noc4cc(F)ccc34)CC2)c(O)c1 (stereo not given) | 142 to 144 °C

Moving on to the next molecule.
So what does the record say about melting point for COc1ccc(S(=O)(=O)C2(CCCC#Cc3ccc(C(=O)O)cc3C)SC(=O)NC2=O)cc1 (stereo not given) ?
182 to 184 °C

###

Recorded melting point values for a group of molecules are listed next.

Examples with answers:
molecule | melting point
N=C(NCCNC(c1ccccc1)(c1ccccc1)c1ccccc1)N[N+](=O)[O-] | 217 to 219 °C
Clc1cccc(Oc2nccnc2Cl)c1 | 83 to 85 °C
CCC(C(=O)N(CC)CC)n1ccc(-c2ccccc2)n1 (stereo not given) | 63 to 66 °C

So what does the record say about melting point for CCc1cc(-c2ccc(Cl)cc2)nc2c(I)cnn12 ?
150 to 152 °C

So what does the record say about melting point for CCOC(=O)Cc1c(C)n(-c2ncnc3ccccc23)c2ccc(OC)cc12 ?
121 to 123 °C

So what does the record say about melting point for CS(=O)(=O)c1ccc(C(=O)c2cnoc2C2CC2)c(Cl)c1-c1nccs1 ?
153 to 155 °C

So what does the record say about melting point for CCn1ncc2c1ncc1c(N)nc3cc(C)nn3c12 ?
248 to 250 °C
